- target or system: HIV-1 protease (Human immunodeficiency virus type 1 group M subtype B)
- method summary: Determination of Ki values, HIV-1 protease
- Assay type: biochemical
- measurement setup: Table 1; read-out: Ki
assay metric: Ki (nM)
// note: answer is a bare numeric in nM

Cc1sc2ncc(C(O)CCCc3ccccc3)n2c1C (stereo not drawn) [Example 3] :: 246
Cc1sc2ncc(C(O)/C=C/c3ccccc3)n2c1C (stereo not drawn) [Example 12] :: 567

From here, focus on the item given below.
Entry Cc1sc2ncc(C(O)CCc3ccccc3)n2c1C (stereo not drawn) [Example 11] : Ki on HIV-1 protease (Human immunodeficiency virus type 1 group M subtype B) = 120

====

- target or system: HIV-1 protease (Human immunodeficiency virus type 1 group M subtype B, UniProt P04585)
- method summary: HIV protease screening assay (fluorescently labeled biotinylated substrate, streptavidin beads), percent inhibition
- Type: biochemical
- measurement setup: 10 μM (Table 5); read-out: % HIV Protease Inhibition
- Method: The HIV protease screening assay is based on fluorescently labeled substrate which can be resolved from nonlabeled cleavage product using special beads coated with streptavidin. […] The labeled cleavage product is separated from the unreacted substrate via filtration and is read on the Idexx screen machine. The data are analyzed by appropriate computer algorithms to ascertain percent inhibition values.
assay metric: inhibition at 10 µM (%)
Please respond with the number in % and leave the unit unwritten.

These solved cases illustrate the format of a correct answer.
OC(CCc1ccccc1)c1cnc2sc3cc(F)ccc3n12 (stereo not shown) :: 88
OC(CCc1ccccc1)c1cnc2sc3ccccc3n12 (stereo not shown) :: 94
COc1ccc2c(c1)sc1ncc(C(O)CCc3ccccc3)n12 (stereo not shown) :: 93

inhibition at 10 µM recorded for this compound, Cc1ccc2c(c1)sc1ncc(C(O)CCc3ccccc3)n12 (stereo not shown) , is 92
